Each entry below carries its reported SI IIIB.
Test system: WT HIV-1 (IIIB)
Test: microbe, parasite or virus in culture
Assay type: cell-based
Settings: ratio of CC50/EC50
Keep it simple and answer with nothing but the number.

compound | system.name | parameter.measured | val
Cc1cc(-c2ccc(N(C)C)cc2)cc(C)c1Oc1nc(NC2CCN(Cc3ccc(C(N)=O)cc3)CC2)nc2ccsc12 [Compound 30] | WT HIV-1 (IIIB) | SI IIIB | 134

Record lookup: for WT HIV-1 (IIIB), what SI IIIB belongs to Cc1cc(-c2ccc(C#N)cc2)cc(C)c1Oc1nc(NC2CCN(Cc3ccc(S(N)(=O)=O)cc3)CC2)nc2ccsc12 [Compound 25] ?
312

Can you check COc1ccc(-c2cc(C)c(Oc3nc(NC4CCN(Cc5ccc(S(N)(=O)=O)cc5)CC4)nc4ccsc34)c(C)c2)cc1 [Compound 21] next?
272

Note, next up: Cc1cc(-c2ccco2)cc(C)c1Oc1nc(NC2CCN(Cc3ccc(S(N)(=O)=O)cc3)CC2)nc2ccsc12 [Compound 11]
762

Can you check Cc1cc(-c2cccc(C#N)c2)cc(C)c1Oc1nc(NC2CCN(Cc3ccc(C(N)=O)cc3)CC2)nc2ccsc12 [Compound 28] next?
178

One more compound: Cc1cc(-c2cccc(C#N)c2)cc(C)c1Oc1nc(NC2CCN(Cc3ccc(S(N)(=O)=O)cc3)CC2)nc2ccsc12 [Compound 27]
1054

---

Test system: HIV-1 L100I mutant strain
Assay: microbe, parasite or virus in culture
Type: cell-based
Conditions: ratio of EC50 (resistant viral strain)/EC50 (wild-type viral strain)
Consider the cut-off 3. If the recorded RF L100I is strictly smaller, the label is True; if not, the label is False.

Worked cases, answers included:
compound | category.label
Cc1cc(-c2ccccc2)cc(C)c1Oc1nc(NC2CCN(Cc3ccc(C(N)=O)cc3)CC2)nc2ccsc12 | False
Cc1cc(-c2cccs2)cc(C)c1Oc1nc(NC2CCN(Cc3ccc(C(N)=O)cc3)CC2)nc2ccsc12 | False
Cc1cc(-c2cccs2)cc(C)c1Oc1nc(NC2CCN(Cc3ccc(S(N)(=O)=O)cc3)CC2)nc2ccsc12 | True
Cc1cc(-c2cccc(N(C)C)c2)cc(C)c1Oc1nc(NC2CCN(Cc3ccc(S(N)(=O)=O)cc3)CC2)nc2ccsc12 | True
Cc1cc(-c2ccc(C#N)cc2)cc(C)c1Oc1nc(NC2CCN(Cc3ccc(C(N)=O)cc3)CC2)nc2ccsc12 | True

Threshold test, RF L100I < 3: `Cc1cc(-c2cccc(C#N)c2)cc(C)c1Oc1nc(NC2CCN(Cc3ccc(C(N)=O)cc3)CC2)nc2ccsc12`
True

Also Cc1ccnc2c1NC(=O)c1cccnc1N2C1CC1 [NVP, Nevirapine, reference compound] ?
False

Try `Cc1cc(-c2ccc(C#N)cc2)cc(C)c1Oc1nc(NC2CCN(Cc3ccc(S(N)(=O)=O)cc3)CC2)nc2ccsc12` next.
True

---

Reported RF Y181C values follow for various molecules
System: HIV-1 Y181C mutant strain
Experiment: microbe, parasite or virus in culture
Type: cell-based
Conditions: ratio of EC50 (resistant viral strain)/EC50 (wild-type viral strain)
API doc: respond with a numeric literal and nothing else, no unit.

molecule | parameter.measured | val
Cc1cc(C#N)cc(C)c1Oc1nc(Nc2ccc(C#N)cc2)nc(N)c1Br [ETR, Etravirine, reference compound] | RF Y181C | 2.4
Cc1cc(-c2ccc(F)cc2)cc(C)c1Oc1nc(NC2CCN(Cc3ccc(C(N)=O)cc3)CC2)nc2ccsc12 | RF Y181C | 2.8
COc1ccc(-c2cc(C)c(Oc3nc(NC4CCN(Cc5ccc(C(N)=O)cc5)CC4)nc4ccsc34)c(C)c2)cc1 | RF Y181C | 3.0

Report RF Y181C for `Cc1cc(-c2ccco2)cc(C)c1Oc1nc(NC2CCN(Cc3ccc(C(N)=O)cc3)CC2)nc2ccsc12` please.
5.5

Similarly, `Cc1cc(-c2cccc(N(C)C)c2)cc(C)c1Oc1nc(NC2CCN(Cc3ccc(S(N)(=O)=O)cc3)CC2)nc2ccsc12` ?
2.6

Consider next the molecule `Cc1cc(-c2ccccc2)cc(C)c1Oc1nc(NC2CCN(Cc3ccc(C(N)=O)cc3)CC2)nc2ccsc12` in the same way.
4.1

Likewise for `Cc1cc(-c2ccc(C#N)cc2)cc(C)c1Oc1nc(NC2CCN(Cc3ccc(C(N)=O)cc3)CC2)nc2ccsc12` ?
1.9

---

Assay: In vivo pharmacokinetics in Wistar rat
Conditions: plasma, po, 20 mg/kg
parameter.measured: AUC(0-t) (ng·h/mL)
Provide only the numeric value, understood in ng·h/mL.

Which measured AUC(0-t) value corresponds to Cc1cc(-c2ccc(C#N)cc2)cc(C)c1Oc1nc(NC2CCN(Cc3ccc(C(N)=O)cc3)CC2)nc2ccsc12 [Compound 26] ?
4360

---

System: HIV-2 strain (ROD)
Assay: Anti-HIV-2
Type: cell-based
Conditions: ratio of CC50/EC50
Output 1 (yes) for records whose SI ROD is lower than 4, 0 (no) for records at or above 4.

mol.smiles | system.name | category.label
Cc1cc(-c2ccc(F)cc2)cc(C)c1Oc1nc(NC2CCN(Cc3ccc(C(N)=O)cc3)CC2)nc2ccsc12 | HIV-2 strain (ROD) | 1 (yes)
Cc1cc(-c2ccsc2)cc(C)c1Oc1nc(NC2CCN(Cc3ccc(S(N)(=O)=O)cc3)CC2)nc2ccsc12 | HIV-2 strain (ROD) | 1 (yes)
Cc1cc(-c2ccccc2)cc(C)c1Oc1nc(NC2CCN(Cc3ccc(S(N)(=O)=O)cc3)CC2)nc2ccsc12 | HIV-2 strain (ROD) | 1 (yes)
Cc1cc(-c2ccoc2)cc(C)c1Oc1nc(NC2CCN(Cc3ccc(C(N)=O)cc3)CC2)nc2ccsc12 | HIV-2 strain (ROD) | 0 (no)
Cc1cc(-c2ccc(N(C)C)cc2)cc(C)c1Oc1nc(NC2CCN(Cc3ccc(C(N)=O)cc3)CC2)nc2ccsc12 | HIV-2 strain (ROD) | 1 (yes)
Cc1cc(-c2cccc(C#N)c2)cc(C)c1Oc1nc(NC2CCN(Cc3ccc(S(N)(=O)=O)cc3)CC2)nc2ccsc12 | HIV-2 strain (ROD) | 1 (yes)

# strict comparison: is reported SI ROD < 4? input = `COc1ccc(-c2cc(C)c(Oc3nc(NC4CCN(Cc5ccc(S(N)(=O)=O)cc5)CC4)nc4ccsc34)c(C)c2)cc1`
1 (yes)

Again, but for `COc1ccc(-c2cc(C)c(Oc3nc(NC4CCN(Cc5ccc(C(N)=O)cc5)CC4)nc4ccsc34)c(C)c2)cc1`
1 (yes)

How about this compound: `Cc1cc(-c2ccc(C#N)cc2)cc(C)c1Oc1nc(NC2CCN(Cc3ccc(S(N)(=O)=O)cc3)CC2)nc2ccsc12`
1 (yes)

Query `Cc1cc(-c2ccco2)cc(C)c1Oc1nc(NC2CCN(Cc3ccc(C(N)=O)cc3)CC2)nc2ccsc12` next
1 (yes)

Likewise for `Cc1cc(-c2ccc(F)cc2)cc(C)c1Oc1nc(NC2CCN(Cc3ccc(S(N)(=O)=O)cc3)CC2)nc2ccsc12` ?
0 (no)

Another compound: `Cc1cc(-c2ccc(N(C)C)cc2)cc(C)c1Oc1nc(NC2CCN(Cc3ccc(S(N)(=O)=O)cc3)CC2)nc2ccsc12`
1 (yes)

Then what about the compound `Cc1cc(-c2ccccc2)cc(C)c1Oc1nc(NC2CCN(Cc3ccc(C(N)=O)cc3)CC2)nc2ccsc12` ?
0 (no)

---

Assay: In vivo pharmacokinetics in Wistar rat
Conditions: plasma, po, 20 mg/kg
parameter.measured: Cmax

// Cmax lookup, key: Cc1cc(-c2ccc(C#N)cc2)cc(C)c1Oc1nc(NC2CCN(Cc3ccc(C(N)=O)cc3)CC2)nc2ccsc12 [Compound 26]
762 ng/mL

---

System: HIV-1 L100I mutant strain
Test: microbe, parasite or virus in culture
Format: cell-based
Details: CC50/EC50
Classification scheme (SI L100I): LOW: < 60; MID: ≥ 60 and < 200; HIGH: ≥ 200

mol.smiles | category.label
COc1ccc(-c2cc(C)c(Oc3nc(NC4CCN(Cc5ccc(C(N)=O)cc5)CC4)nc4ccsc34)c(C)c2)cc1 | LOW
Cc1cc(-c2ccc(F)cc2)cc(C)c1Oc1nc(NC2CCN(Cc3ccc(S(N)(=O)=O)cc3)CC2)nc2ccsc12 | HIGH
Cc1cc(-c2ccccc2)cc(C)c1Oc1nc(NC2CCN(Cc3ccc(S(N)(=O)=O)cc3)CC2)nc2ccsc12 | MID
Cc1cc(-c2ccsc2)cc(C)c1Oc1nc(NC2CCN(Cc3ccc(C(N)=O)cc3)CC2)nc2ccsc12 | LOW
Cc1cc(-c2ccccc2)cc(C)c1Oc1nc(NC2CCN(Cc3ccc(C(N)=O)cc3)CC2)nc2ccsc12 | LOW
Cc1cc(-c2ccc(N(C)C)cc2)cc(C)c1Oc1nc(NC2CCN(Cc3ccc(S(N)(=O)=O)cc3)CC2)nc2ccsc12 | MID
Cc1cc(-c2ccco2)cc(C)c1Oc1nc(NC2CCN(Cc3ccc(S(N)(=O)=O)cc3)CC2)nc2ccsc12 | MID
Cc1cc(-c2ccco2)cc(C)c1Oc1nc(NC2CCN(Cc3ccc(C(N)=O)cc3)CC2)nc2ccsc12 | MID

Class? Entry: `Cc1cc(-c2ccc(F)cc2)cc(C)c1Oc1nc(NC2CCN(Cc3ccc(C(N)=O)cc3)CC2)nc2ccsc12`
MID

And then `COc1ccc(-c2cc(C)c(Oc3nc(NC4CCN(Cc5ccc(S(N)(=O)=O)cc5)CC4)nc4ccsc34)c(C)c2)cc1` , what is it?
MID
